- System: ALT in blood
- EXPERIMENT NOTES: Suppression of LPS/D-galactosamine-induced hepatitis
- Format: in vivo
- TEST CONDITIONS: Mus musculus, iv; dose 10 mg/kg, tail vein, 10 minutes before LPS/D-galactosamine; ALT in blood at 6 hours, male C57BL/6 mice
Counter-ions that a name gives are not always drawn.
Kindly return yes if reported inhibition in vivo at 10 mg/kg is no lower than 60%; return no if it is lower.

COC(=O)[C@H](Cc1ccccc1)NC(=O)c1cc(Cl)c(OCCOCCN(C)C)c(Cl)c1O [Example 37]    yes
CC(C)OC(=O)[C@H](Cc1ccccc1)NC(=O)c1cc(Cl)c(OCCCCN)c(Cl)c1O [Example 27]    yes
NCCCCOc1c(Cl)cc(C(=O)N[C@@H](Cc2ccccc2)C(=O)OC2CCCCC2)c(O)c1Cl [Example 45]    no

Dear colleague, could you confirm whether CNCCCCOc1c(Cl)cc(C(=O)N[C@@H](Cc2ccccc2)C(=O)O)c(O)c1Cl [Example 126, hydrochloride] has inhibition in vivo at 10 mg/kg at or above 60%?
no

Dear colleague, could you confirm whether CCOC(=O)[C@H](Cc1ccccc1)NC(=O)c1cc(Cl)c(OCCN2CCN(C)CC2)c(Cl)c1O [Example 2, dihydrochloride] has inhibition in vivo at 10 mg/kg at or above 60%?
yes

Dear colleague, could you confirm whether CCOC(=O)C(Cc1ccccc1)NC(=O)c1cc(Cl)c(OCCCCNC)c(Cl)c1OC(C)=O (stereo not shown) [Example 117] has inhibition in vivo at 10 mg/kg at or above 60%?
no

---

- Tested on: ALT in blood
- EXPERIMENT NOTES: Suppression of LPS/D-galactosamine-induced hepatitis
- Assay type: in vivo
- TEST CONDITIONS: Mus musculus, iv; dose 10 mg/kg, tail vein, 10 minutes before LPS/D-galactosamine; ALT in blood at 6 hours, male C57BL/6 mice
Measured inhibition in vivo at 10 mg/kg values are reported for all entries that follow.
Value expressed in %; do not type the unit.

COC(=O)[C@H](Cc1ccccc1)NC(=O)c1cc(Cl)c(OCCCCNC(=N)N)c(Cl)c1O [Example 32]    78

Given item CNCCCCOc1c(Cl)cc(C(=O)N[C@@H](Cc2ccccc2)C(=O)OC2CCCCC2)c(O)c1Cl [Example 46] , the value recorded as its inhibition in vivo at 10 mg/kg is 57

Given item COC(=O)[C@H](Cc1ccccc1)NC(=O)c1cc(Cl)c(OCCN2CCN[C@@H](C)C2)c(Cl)c1O [Example 61] , the value recorded as its inhibition in vivo at 10 mg/kg is 6

Given item COC(=O)[C@H](Cc1ccccc1)NC(=O)c1ccc(OCCCCN)cc1O.Cl [Example 4] , the value recorded as its inhibition in vivo at 10 mg/kg is 42
